targetOfAssay: T1, IL-23R on DB cells (human, UniProt Q5VWK5 24-629)
T1 sequence (looked up): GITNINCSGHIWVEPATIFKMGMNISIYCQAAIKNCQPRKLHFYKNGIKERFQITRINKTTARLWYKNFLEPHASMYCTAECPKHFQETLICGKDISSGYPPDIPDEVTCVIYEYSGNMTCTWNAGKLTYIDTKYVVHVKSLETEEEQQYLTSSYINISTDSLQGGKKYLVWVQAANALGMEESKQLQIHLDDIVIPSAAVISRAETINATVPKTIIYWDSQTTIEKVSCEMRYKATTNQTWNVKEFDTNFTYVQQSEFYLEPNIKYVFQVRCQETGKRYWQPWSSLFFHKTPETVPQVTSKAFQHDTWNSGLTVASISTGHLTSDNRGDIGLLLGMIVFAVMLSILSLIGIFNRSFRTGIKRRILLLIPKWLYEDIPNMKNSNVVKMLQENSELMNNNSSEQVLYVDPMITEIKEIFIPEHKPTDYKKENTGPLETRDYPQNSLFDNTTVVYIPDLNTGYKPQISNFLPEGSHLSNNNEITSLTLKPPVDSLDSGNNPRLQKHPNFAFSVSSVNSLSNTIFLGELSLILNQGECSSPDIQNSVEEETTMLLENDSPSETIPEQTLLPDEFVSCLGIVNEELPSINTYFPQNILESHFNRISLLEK
assay: cell-based or functional assay
Bridges are numbered along the chain shown (N, C = ends). [ ]: non-standard residue; d: D form. 2Nal = N[C@@H](Cc1ccc2ccccc2c1)C(=O)O; AEF = NCCOc1ccc(C[C@H](N)C(=O)O)cc1; Pen = CC(C)(S)[C@H](N)C(=O)O; Aib = CC(C)(N)C(=O)O
testReadout: pStat3 HTRF IC50

The reported value for XNTWQXFXXKNA (Ac; Pen-Pen disulfide; Phe(4-OMe); 2-Nal; Aib; Lys(Ac); βAla; NH2) [Ac-[Pen]-NTWQ-[Pen]-[Phe(4-OMe)]-[2-Nal]-[Aib]-[Lys(Ac)]-N-[βAla]-NH2] in terms of pStat3 HTRF IC50 is < 10 nM

The reported value for XNTWQXFXXKNA (Ac; Pen-Pen disulfide; Phe[4-(2-aminoethoxy)]; 2-Nal; Aib; Lys(Ac); NH2) [Ac-[Pen]-NTWQ-[Pen]-[Phe[4-(2-aminoethoxy)]-[2-Nal]-[Aib]-[Lys(Ac)]-NA-NH2] in terms of pStat3 HTRF IC50 is < 10 nM

The reported value for XQTWQXYWLENG (Ac; Pen-Pen disulfide; α-MeLeu; NH2) [Ac-[Pen]-QTWQ-[Pen]-Y-[α-MeLeu]-ENG-NH2] in terms of pStat3 HTRF IC50 is 10 to 25 nM

The reported value for Ac-[dD][Pen]QTWQ[Pen][AEF][2Nal][Aib]K(Ac)NN-NH2 (disulfide 2-7; SMILES CC(=O)NCCCC[C@H](NC(=O)C(C)(C)NC(=O)[C@H](Cc1ccc2ccccc2c1)NC(=O)[C@H](Cc1ccc(OCCN)cc1)NC(=O)[C@H]1NC(=O)[C@H](CCC(N)=O)NC(=O)[C@H](Cc2c[nH]c3ccccc23)NC(=O)[C@H]([C@@H](C)O)NC(=O)[C@H](CCC(N)=O)NC(=O)[C@@H](NC(=O)[C@@H](CC(=O)O)NC(C)=O)C(C)(C)SSC1(C)C)C(=O)N[C@@H](CC(N)=O)C(=O)N[C@@H](CC(N)=O)C(N)=O) [Ac-(D)Asp-[Pen]-QTWQ-[Pen]-[Phe[4-(2-aminoethoxy)]-[2-Nal]-[Aib]-[Lys(Ac)]-NN-NH2] in terms of pStat3 HTRF IC50 is < 10 nM
